The measurements presented in this section are drawn from the supplement of paper PMC8728848.

molecular target: GlcNAc(b1-3)Gal(b1-4)GlcNAc(b1-3)Gal(b1-4)GlcNAc(b1-3)Gal(b1-4)GlcNAc(b1-3)Gal(b1-4)GlcNAc(b1-2)[GlcNAc(b1-3)Gal(b1-4)GlcNAc(b1-3)Gal(b1-4)GlcNAc(b1-3)Gal(b1-4)GlcNAc(b1-3)Gal(b1-4)GlcNAc(b1-6)]Man(a1-6)[GlcNAc(b1-3)Gal(b1-4)GlcNAc(b1-3)Gal(b1-4)GlcNAc(b1-3)Gal(b1-4)GlcNAc(b1-3)Gal(b1-4)GlcNAc(b1-2)Man(a1-3)]Man(b1-4)GlcNAc(b1-4)[Fuc(a1-6)]GlcNAc; test: glycan array binding signal (z-score within array); higher = stronger binding; conditions: glycan notation: IUPAC condensed, linker removed
Only a selection was taken, and the strongest signals are over-represented in it overall.
Outcome measure: glycan array binding signal (z-score)
Give bare numbers.

LecB LY19 (Pseudomonas aeruginosa) (protein) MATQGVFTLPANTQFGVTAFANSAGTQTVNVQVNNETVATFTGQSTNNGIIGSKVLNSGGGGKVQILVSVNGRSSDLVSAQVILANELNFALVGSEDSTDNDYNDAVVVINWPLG    0.196

Consider the record given below.
**Q:** Please indicate glycan array binding signal (z-score) recorded for Pwp3 (Candida glabrata) (protein) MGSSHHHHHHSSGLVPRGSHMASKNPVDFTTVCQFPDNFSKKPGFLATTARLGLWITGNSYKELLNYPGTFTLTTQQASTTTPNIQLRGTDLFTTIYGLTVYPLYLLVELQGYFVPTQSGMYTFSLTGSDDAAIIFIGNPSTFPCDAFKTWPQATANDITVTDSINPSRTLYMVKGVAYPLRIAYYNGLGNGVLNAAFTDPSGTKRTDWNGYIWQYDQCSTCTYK
**A:** 4.05
